- System: MOLT-4 leukemia
- assay-summary: NCI tumour cell line growth inhibition, 48 h
experimental-endpoint: TGI

Worked cases, TGI given:
COC(=O)CCC(=O)N1CC1C (stereo not drawn) ... > 100 µM
COc1cc(CN(c2ccc(C)cc2)C2OC(=O)c3ccccc32)cc(OC)c1OC (stereo not drawn) ... > 100 µM

Alright, here's another compound for you.
### Prompt Give TGI (MOLT-4 leukemia) of the following compound: `Cc1cccc(Nc2cc(Cl)nc(SCC(=O)O)n2)c1C`
### Response > 100 µM

---

- System: SNB-19 CNS
- assay-summary: NCI tumour cell line growth inhibition, 48 h
experimental-endpoint: TGI (µM)
Lab book: enter the figure in µM, no units written.

Known results for molecules:
CCN(CC)c1ccc(N=Nc2ccc(-c3nc4cccn(C)c-4n3)cc2)cc1 ... 52.4
CCOc1cc(-c2nc3cc(F)ccc3s2)ccc1O ... 30.7
CCC(=O)Nc1ccc(NCC(=O)Nc2ccc(OC)cc2)cc1 ... 31.3
CCc1nc2cc(/C=C/C(=O)NO)ccc2c(=O)n1CCc1ccc(OC)cc1 ... 21.4

// switching to the query molecule
### Prompt Consider the molecule shown here: `C=CC[C@]1(C2=NC(C)(C)CO2)c2ccccc2-c2ccccc2[C@H]1C(C)=O` What is its recorded TGI?
### Response 34.7

These data points were gathered from PubChem BioAssay (NCI).
